# MTD at 120 h annotations
# Test description: Calcium liability (tolerance test in mice)
# Experimental context: mouse, in vivo, sc

| Compound | MTD at 120 h |
| --- | --- |
| C=C1/C(=C\C=C2/CCC[C@]3(C)[C@@H]([C@@H](C)COC(=O)C(C)(C)O)CC[C@@H]23)C[C@@H](O)C[C@@H]1O | > 10 mg/kg |
| C=C1/C(=C\C=C2/CCC[C@]3(C)[C@@H]([C@@H](C)COC(=O)C(C)(C)C)CC[C@@H]23)C[C@@H](O)C[C@@H]1O | > 6 mg/kg |
| C=C1/C(=C\C=C2/CCC[C@]3(C)[C@@H]([C@H](C)COC(=O)C(C)(C)O)CC[C@@H]23)C[C@@H](O)C[C@@H]1O | > 11 mg/kg |
| C=C1/C(=C\C=C2/CCC[C@]3(C)[C@@H]([C@H](C)COC(=O)C(C)(C)C)CC[C@@H]23)C[C@@H](O)C[C@@H]1O | 9 mg/kg |

Moving on to another compound below.
The reported value for C=C1/C(=C\C=C2/CCC[C@]3(C)[C@@H]([C@H](C)COC(=O)CC(C)(O)CC)CC[C@@H]23)C[C@@H](O)C[C@@H]1O (mixture of isomers) in terms of MTD at 120 h is 7 mg/kg

* * *

# Test description: Calcium liability (tolerance test in mice)
# Experimental context: mouse, in vivo, sc; mice 25-30 g, daily subcutaneous administration for 4 consecutive days; body weight before and at end of 5 day treatment period; read-out: HTD in mice (highest tolerated dose, dose which results in zero weight gain)
Readout label: MTD at 120 h

| Compound string | MTD at 120 h |
| --- | --- |
| C[C@H](C(=O)OCC1(O)CCCCCC1)[C@H]1CC[C@H]2/C(=C/C=C3C[C@@H](O)C[C@H](O)C3)CCC[C@]12C | > 6 mg/kg |
| C[C@@H](COC(=O)C(C)(C)O)[C@H]1CC[C@H]2/C(=C/C=C3C[C@@H](O)C[C@H](O)C3)CCC[C@]12C | > 9 mg/kg |

Moving on to another molecule below.
The reported value for C=C1/C(=C\C=C2/CCC[C@]3(C)[C@@H]([C@H](C)C(=O)OCC4(O)CCCCC4)CC[C@@H]23)C[C@@H](O)C[C@@H]1O in terms of MTD at 120 h is 1 mg/kg

* * *

# MTD at 120 h annotations
# Test description: Calcium liability (tolerance test in mice)
# Experimental context: mouse, in vivo, sc; mice 25-30 g, daily subcutaneous administration for 4 consecutive days; body weight before and at end of 5 day treatment period; read-out: HTD in mice (highest tolerated dose, dose which results in zero weight gain)
# Text: This routine test gives a global picture of calcemic liability. Profound changes in calcium homeostasis strongly affect the weight development of the animals. This parameter was used as a primary test for tolerance. Mice (25-30 g body weight.) received daily subcutaneous administrations of the vitamin D derivative for 4 consecutive days. Body weight was registered just before and at the end of a 5 day treatment period.
Respond numerically; units are mg/kg and should not be typed.

| Compound | MTD at 120 h, mg/kg |
| --- | --- |
| C[C@H](C(=O)OCC1(O)CCCCC1)[C@H]1CC[C@H]2/C(=C/C=C3C[C@@H](O)C[C@H](O)C3)CCC[C@]12C [Example 8] | 1 |

The reported value for C=C1/C(=C\C=C2/CCC[C@]3(C)[C@@H]([C@H](C)COC(=O)CC(C)(O)C(F)(F)F)CC[C@@H]23)C[C@@H](O)C[C@@H]1O (stereo partly drawn) [Example 28] in terms of MTD at 120 h is 0.5

* * *

# EC50 annotations
# Target under test: human VDR (Homo sapiens, UniProt P11473)
# Sequence (P11473 1-427): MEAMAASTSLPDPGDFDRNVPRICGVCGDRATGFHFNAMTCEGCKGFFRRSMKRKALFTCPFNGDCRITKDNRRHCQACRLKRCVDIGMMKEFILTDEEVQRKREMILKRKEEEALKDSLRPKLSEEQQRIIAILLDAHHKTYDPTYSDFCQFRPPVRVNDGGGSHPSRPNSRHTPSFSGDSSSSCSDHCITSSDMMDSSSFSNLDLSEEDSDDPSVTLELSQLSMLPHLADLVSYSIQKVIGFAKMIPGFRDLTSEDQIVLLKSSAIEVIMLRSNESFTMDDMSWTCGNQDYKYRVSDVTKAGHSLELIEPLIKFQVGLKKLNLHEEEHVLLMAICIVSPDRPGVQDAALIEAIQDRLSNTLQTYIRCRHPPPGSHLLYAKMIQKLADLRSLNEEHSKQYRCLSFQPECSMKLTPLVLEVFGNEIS
# Test description: VDR activation (transcription activation assay; COS cells cotransfected with human VDR and VDRE3-luciferase reporter)
# Experimental context: human VDR (pSG5), VDRE3 rat osteocalcin / tk promoter / luciferase reporter, concentration giving half-maximal activity (8-10 fold luciferase induction), read-out: Vitamin D Receptor Activation ED50
Respond numerically; units are nM and should not be typed.

| Compound | Target under test | EC50 (nM) |
| --- | --- | --- |
| C[C@@H](COC(=O)C(C)(C)O)[C@H]1CC[C@H]2/C(=C/C=C3C[C@@H](O)C[C@H](O)C3)CCC[C@]12C | human VDR (Homo sapiens, UniProt P11473) | 0.55 |
| C=C1/C(=C\C=C2/CCC[C@]3(C)[C@@H]([C@H](C)COC(=O)C(C)(C)O)CC[C@@H]23)C[C@@H](O)C[C@@H]1O | human VDR (Homo sapiens, UniProt P11473) | 83 |
| C=C1/C(=C\C=C2/CCC[C@]3(C)[C@@H]([C@H](C)C(=O)OCC4(O)CCCCC4)CC[C@@H]23)C[C@@H](O)C[C@@H]1O | human VDR (Homo sapiens, UniProt P11473) | 5.6 |
| C=C1/C(=C\C=C2/CCC[C@]3(C)[C@@H]([C@H](C)COC(=O)C(C)(C)C)CC[C@@H]23)C[C@@H](O)C[C@@H]1O | human VDR (Homo sapiens, UniProt P11473) | 141 |
| C=C1/C(=C\C=C2/CCC[C@]3(C)[C@@H]([C@@H](C)COC(=O)C(C)(C)O)CC[C@@H]23)C[C@@H](O)C[C@@H]1O | human VDR (Homo sapiens, UniProt P11473) | 0.82 |
| C=C1/C(=C\C=C2/CCC[C@]3(C)[C@@H]([C@H](C)COC(=O)CC(C)(O)CC)CC[C@@H]23)C[C@@H](O)C[C@@H]1O (mixture of isomers) | human VDR (Homo sapiens, UniProt P11473) | 2.5 |

Moving on to another compound below.
The reported value for C=C1/C(=C\C=C2/CCC[C@]3(C)[C@@H]([C@H](C)COC(=O)C(O)(CC)CC)CC[C@@H]23)C[C@@H](O)C[C@@H]1O in terms of EC50 is 18

* * *

# Test description: Calcium liability (tolerance test in mice)
# Experimental context: mouse, in vivo, sc; mice 25-30 g, daily subcutaneous administration for 4 consecutive days; body weight before and at end of 5 day treatment period; read-out: HTD in mice (highest tolerated dose, dose which results in zero weight gain)
Readout label: MTD at 120 h (mg/kg)
Respond numerically; units are mg/kg and should not be typed.

| Compound | Data value |
| --- | --- |
| C=C1/C(=C\C=C2/CCC[C@]3(C)[C@@H]([C@H](C)CCCC(C)(C)O)CC[C@@H]23)C[C@@H](O)C[C@@H]1O [Calcitriol, calcitriol, reference compound] | 0.0005 |

Moving on to another compound below.
The reported value for C=C1/C(=C\C=C2/CCC[C@]3(C)[C@@H]([C@H](C)COC(=O)C(O)(CC)CC)CC[C@@H]23)C[C@@H](O)C[C@@H]1O [Example 24] in terms of MTD at 120 h is 2.5

* * *

# Target under test: UniProt P11473
# Test description: VDR activation (transcription activation assay; COS cells cotransfected with human VDR and VDRE3-luciferase reporter)
# Experimental context: human VDR (pSG5), VDRE3 rat osteocalcin / tk promoter / luciferase reporter, concentration giving half-maximal activity (8-10 fold luciferase induction), read-out: Vitamin D Receptor Activation ED50
# if measured EC50 < 30 nM: 1  # else: -1

| Molecule | Cat |
| --- | --- |
| C[C@H](C(=O)OCC1(O)CCCC1)[C@H]1CC[C@H]2/C(=C/C=C3C[C@@H](O)C[C@H](O)C3)CCC[C@]12C | 1 |
| C[C@H](C(=O)OCC1(O)CCCCCC1)[C@H]1CC[C@H]2/C(=C/C=C3C[C@@H](O)C[C@H](O)C3)CCC[C@]12C | -1 |
| C=C1/C(=C\C=C2/CCC[C@]3(C)[C@@H]([C@@H](C)COC(=O)C(C)(C)C)CC[C@@H]23)C[C@@H](O)C[C@@H]1O | 1 |
| C=C1/C(=C\C=C2/CCC[C@]3(C)[C@@H]([C@H](C)COC(=O)CC(C)(O)C(F)(F)F)CC[C@@H]23)C[C@@H](O)C[C@@H]1O (stereo partly drawn) | 1 |
| C[C@H](C(=O)OCC1(O)CCCCC1)[C@H]1CC[C@H]2/C(=C/C=C3C[C@@H](O)C[C@H](O)C3)CCC[C@]12C | -1 |

Continue with the next molecule.
Quick check: does C[C@H](C(=O)OCCC1(O)CCCC1)[C@H]1CC[C@H]2/C(=C/C=C3C[C@@H](O)C[C@H](O)C3)CCC[C@]12C have EC50 under 30 nM?
-1

These data points were gathered from patent US5827883A.
